Tested on: HCC1143 breast cancer cell line
Experiment: 72 hours CellTiter-Glo proliferation assay, HCC1143
Format: cell-based
Conditions: single agent, read-out: Abs IC50
readout-label: IC50

Asked: // map "COc1ccccc1-c1nccc(COc2ccccc2C[C@@H](Oc2ncnc3sc(-c4ccc(F)cc4)c(-c4ccc(OCCN5CCN(C)CC5)c(Cl)c4C)c23)C(=O)O)n1" to recorded IC50 (system: HCC1143 breast cancer cell line)
Given back: > 10 µM

----------
System: A549 lung cancer cell line
Assay: 72 hours CellTiter-Glo proliferation assay, A549
Type: cell-based
Settings: single agent, read-out: Abs IC50
readout-label: IC50

Asked: // lookup IC50 for "COc1ccccc1-c1nccc(COc2ccccc2C[C@@H](Oc2ncnc3sc(-c4ccc(F)cc4)c(-c4ccc(OCCN5CCN(C)CC5)c(Cl)c4C)c23)C(=O)O)n1"
Given back: > 10 µM

----------
Test system: HCC1500 breast cancer cell line
Assay: 72 hours CellTiter-Glo proliferation assay, HCC1500
Assay type: cell-based
Settings: single agent, read-out: Abs IC50
readout-label: pIC50
One number for each entry, as −log10 of the molar value.

Asked: // lookup pIC50 for COc1ccccc1-c1nccc(COc2ccccc2C[C@@H](Oc2ncnc3sc(-c4ccc(F)cc4)c(-c4ccc(OCCN5CCN(C)CC5)c(Cl)c4C)c23)C(=O)O)n1 [Compound 1]
Given back: 6.59

----------
Test system: BT-549 breast cancer cell line
Assay: 72 hours CellTiter-Glo proliferation assay, BT-549
Format: cell-based
Settings: single agent, read-out: Abs IC50
pIC50: −log10 of the molar value.
readout-label: pIC50

Asked: // lookup pIC50 for "COc1ccccc1-c1nccc(COc2ccccc2C[C@@H](Oc2ncnc3sc(-c4ccc(F)cc4)c(-c4ccc(OCCN5CCN(C)CC5)c(Cl)c4C)c23)C(=O)O)n1"
Given back: < 5.00

----------
Tested on: Hs 578T breast cancer cell line
Assay: 72 hours CellTiter-Glo proliferation assay, Hs 578T
Type: cell-based
Conditions: single agent, read-out: Abs IC50
readout-label: IC50 (nM)
Give bare numbers, in nM.

Asked: // lookup IC50 for "COc1ccccc1-c1nccc(COc2ccccc2C[C@@H](Oc2ncnc3sc(-c4ccc(F)cc4)c(-c4ccc(OCCN5CCN(C)CC5)c(Cl)c4C)c23)C(=O)O)n1"
Given back: 520

Data provenance is patent US10765680B2.
